Target: T1, huCLL1-K244-Avi-Tev-His (human, UniProt Q5QGZ9 65-265)
T1 construct: extracellular domain
T1 sequence (looked up): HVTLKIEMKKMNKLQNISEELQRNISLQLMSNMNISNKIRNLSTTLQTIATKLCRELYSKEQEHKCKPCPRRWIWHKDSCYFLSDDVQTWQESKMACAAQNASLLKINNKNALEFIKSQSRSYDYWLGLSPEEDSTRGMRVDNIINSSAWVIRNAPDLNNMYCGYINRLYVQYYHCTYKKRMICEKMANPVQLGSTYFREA
Experiment: BLI

{"columns": ["binder", "binding result"],
 "data": [
  ["Polypeptide No. 153 (scFv, V domains shown, scFv) VH: QVQLVQSGAEVKKPGASVKVSCKASGGAFSSYALSWVRQAPGQGLEWMGWMNPNSGNTGYAQKFQGRVTMTRDTSTSTVYMELSSLRSEDTAVYYCAADWMIGGDAFDIWGQGTTVTVSS VL: DIQMTQSPSSLSASVGDRVTITCRASQSISSWLAWYQQKPGKAPKLLIYDASRLQSGVPSRFSGSGSGTDFTLTISSLQPEDFATYYCQQSYGIPLTFGGGTKVEIKR", "binds"],
  ["Polypeptide No. 144 (scFv, V domains shown, scFv) VH: QVQLVQSGAEVKKPGASVKVSCKASGYTFTAYYMHWVRQAPGQGLEWMGIIDPSGGSTSYAQQFQGRVTMTRDTSTSTVYMELSSLRSEDTAVYYCARGDYGDYHTLWGQGTLVTVSS VL: DIQMTQSPSSLSASVGDRVTITCRASQGISSYLAWYQQKPGKAPKLLIYDASSLQSGVPSRFSGSGSGTDFTLTISSLQPEDFATYYCQQSYSTPITFGPGTKVDIKR", "binds"],
  ["Polypeptide No. 147 (scFv, V domains shown, scFv) VH: QVQLVQSGAEVKKPGASVKVSCKASGYTFTSYHIHWVRQAPGQGLEWVGGIIPSGGSTSYAQKFQGRVTMTRDTSTSTVYMELSSLRSEDTAVYYCARGTNDDHYDYWGQGTLVTVSS VL: DIQMTQSPSSLSASVGDRVTITCRASQGISNYLAWYQQKPGKAPKLLIYDASNLETGVPSRFSGSGSGTDFTLTISSLQPEDFATYYCQQSYSTPLTFGGGTKVEIKR", "binds"]
]}
